List of koff values.
system: T1, recombinant human EGFR extracellular domain with 6xHis (human, UniProt P00533 25-645)
T1 construct: In-house produced; also called 6xHis EGFR ECD; soluble human EGFR ECD; not shown: 6xHis tag
experimental-protocol: SPR (BIAcore 2000); IgG captured on anti-human Fc, soluble monovalent EGFR ECD injected
# unit: s⁻¹ | format: bare number

Look over these answered cases.
binder: antibody 1284 (antibody, human IgG1, kappa, V domains shown, Chimeric IgG1 kappa) VH: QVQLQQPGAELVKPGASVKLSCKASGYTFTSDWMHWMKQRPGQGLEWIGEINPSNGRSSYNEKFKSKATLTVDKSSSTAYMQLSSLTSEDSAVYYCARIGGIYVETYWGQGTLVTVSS VL: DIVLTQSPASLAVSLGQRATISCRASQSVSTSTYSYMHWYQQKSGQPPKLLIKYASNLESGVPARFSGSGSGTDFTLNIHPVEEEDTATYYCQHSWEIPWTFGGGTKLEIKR
measurement-name: koff
measured-number: 0.00015
--
binder: antibody 1261 (antibody, human IgG1, kappa, V domains shown, Chimeric IgG1 kappa) VH: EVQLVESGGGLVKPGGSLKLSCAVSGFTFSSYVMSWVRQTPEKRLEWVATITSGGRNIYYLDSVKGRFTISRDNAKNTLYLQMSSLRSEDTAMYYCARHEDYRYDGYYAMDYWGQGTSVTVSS VL: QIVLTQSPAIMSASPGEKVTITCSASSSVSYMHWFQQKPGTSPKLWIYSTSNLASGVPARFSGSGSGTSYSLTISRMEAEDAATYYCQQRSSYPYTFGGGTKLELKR
measurement-name: koff
measured-number: 0.0032

Consider the additional binder presented here.
Item: antibody 1024 (antibody, human IgG1, kappa, V domains shown, Chimeric IgG1 kappa) VH: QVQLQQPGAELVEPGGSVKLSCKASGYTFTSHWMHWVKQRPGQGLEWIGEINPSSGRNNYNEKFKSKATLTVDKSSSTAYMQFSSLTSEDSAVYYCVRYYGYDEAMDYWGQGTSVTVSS VL: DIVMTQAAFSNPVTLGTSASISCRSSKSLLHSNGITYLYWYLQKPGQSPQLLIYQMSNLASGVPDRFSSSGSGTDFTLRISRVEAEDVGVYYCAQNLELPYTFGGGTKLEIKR | koff: 0.0049

FYI, the data here is from patent US20110135636A1.
